Source: paper PMC7263517

Measured IC50 values are reported for all entries that follow.
Molecular target: A/WSN/33 (H1N1) influenza virus FluPol (Influenza A virus)
Sequence (P03430 whole entry, looked up): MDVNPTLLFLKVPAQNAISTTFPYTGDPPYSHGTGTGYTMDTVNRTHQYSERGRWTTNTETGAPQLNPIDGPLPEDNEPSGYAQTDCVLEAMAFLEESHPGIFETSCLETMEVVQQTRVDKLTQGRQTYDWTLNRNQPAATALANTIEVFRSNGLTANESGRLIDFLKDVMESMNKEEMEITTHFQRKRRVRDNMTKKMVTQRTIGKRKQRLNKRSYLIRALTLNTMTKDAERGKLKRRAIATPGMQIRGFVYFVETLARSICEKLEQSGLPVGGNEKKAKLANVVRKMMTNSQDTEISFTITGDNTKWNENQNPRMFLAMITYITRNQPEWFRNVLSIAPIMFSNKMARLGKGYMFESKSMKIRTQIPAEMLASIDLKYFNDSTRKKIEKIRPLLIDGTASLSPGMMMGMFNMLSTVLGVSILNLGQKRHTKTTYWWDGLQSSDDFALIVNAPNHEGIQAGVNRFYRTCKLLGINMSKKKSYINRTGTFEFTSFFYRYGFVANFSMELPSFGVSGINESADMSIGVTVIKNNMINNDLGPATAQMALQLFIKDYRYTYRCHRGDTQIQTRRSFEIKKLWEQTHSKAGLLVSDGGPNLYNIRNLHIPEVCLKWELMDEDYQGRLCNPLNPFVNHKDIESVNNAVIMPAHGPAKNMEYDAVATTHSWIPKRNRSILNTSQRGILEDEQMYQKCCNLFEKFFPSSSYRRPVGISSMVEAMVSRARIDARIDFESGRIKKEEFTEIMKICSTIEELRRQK
Test: biochemical
Assay type: biochemical, influenza A/WSN/33 (H1N1) virus
Details: read-out: FLUPOL IC50
# output: bare number, implied unit mM

C[n+]1ccc(C(=O)NCc2ccccc2O)cc1 78.2
O=C(NCc1ccccc1O)c1ccncc1 34.2
O=C(NCc1cccc(O)c1)c1ccncc1 94.8

Here is another compound to look at.
For A/WSN/33 (H1N1) influenza virus FluPol (Influenza A virus), provide IC50 of O=C(NCc1ccc(O)cc1)c1ccncc1 please. 74

---

Target: A/WSN/33 (H1N1) influenza virus FluPol (Influenza A virus)
Test: biochemical
Type: biochemical, influenza A/WSN/33 (H1N1) virus
result type: FOLD CHANGE IC50
Keep the answer to the number alone.

What does the record list as FOLD CHANGE IC50 for O=C(NCc1ccc(O)cc1)c1ccncc1 ? 0.6

Repeat with O=C(NCc1ccccc1O)c1ccncc1 1.4

Repeat with C[n+]1ccc(C(=O)NCc2ccccc2O)cc1 0.6

Repeat with O=C(NCc1ccccc1)c1cc[nH]c(=O)c1 1.3

Repeat with O=C(NCc1cccc(O)c1)c1ccncc1 0.5

Repeat with C[n+]1ccc(C(=O)NCc2ccccc2)cc1 [FAV00A, reference compound] 1
